assayed-target: C5a anaphylatoxin chemotactic receptor 1 (Homo sapiens)
Sequence (P21730 whole entry): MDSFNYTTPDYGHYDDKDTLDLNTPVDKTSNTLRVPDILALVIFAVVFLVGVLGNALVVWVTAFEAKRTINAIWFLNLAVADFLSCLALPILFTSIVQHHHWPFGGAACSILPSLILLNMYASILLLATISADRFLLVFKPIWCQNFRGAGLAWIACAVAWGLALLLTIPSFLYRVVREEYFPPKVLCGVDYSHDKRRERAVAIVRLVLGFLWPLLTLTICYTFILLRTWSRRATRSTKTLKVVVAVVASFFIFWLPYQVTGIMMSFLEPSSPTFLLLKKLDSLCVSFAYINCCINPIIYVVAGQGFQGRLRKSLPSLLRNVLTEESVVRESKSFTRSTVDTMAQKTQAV
assay-text: Antagonist activity at human C5a receptor expressed in CHO cells co-expressed with Galpha16 assessed as inhibition of anaphylatoxin C5a-induced intracellular calcium accumulation after 10 mins by FLIPR assay
Type: functional, cell-based
pIC50: −log10 of the molar value.
Quick reference for pIC50 among some compounds

| smi | pIC50 |
| --- | --- |
| Cc1ccc(S(=O)(=O)N(C)c2ccccc2N(C)S(=O)(=O)c2ccc(C)cc2)cc1 | 6.70 |
| CN(c1ccccc1N(C)S(=O)(=O)c1ccccc1)S(=O)(=O)c1ccccc1 | < 4.22 |
| Cc1ccc(S(=O)(=O)N(CCCN(c2ccccc2)S(=O)(=O)c2ccc(C)cc2)c2ccccc2)cc1 | < 4.22 |

API: value(readout= pIC50, system= C5a anaphylatoxin chemotactic receptor 1 (Homo sapiens), query= Cc1ccc(S(=O)(=O)N2Cc3ccccc3CN(S(=O)(=O)c3ccc(C)cc3)c3ccccc32)cc1 )
< 4.22

// lookup pIC50 | system=C5a anaphylatoxin chemotactic receptor 1 (Homo sapiens) | key= CC(=O)c1ccccc1N(C)S(=O)(=O)c1ccc(C)cc1
< 4.22

API: value(readout= pIC50, system= C5a anaphylatoxin chemotactic receptor 1 (Homo sapiens), query= C=CCN(c1ccccc1N(CC=C)S(=O)(=O)c1ccc(C)cc1)S(=O)(=O)c1ccc(C)cc1 )
6.52

Enter reported pIC50 observed with C5a anaphylatoxin chemotactic receptor 1 (Homo sapiens) for Cc1ccc(S(=O)(=O)N(C)c2ccc(Cl)cc2C(=O)c2ccccc2)cc1
< 4.22

---

assayed-target: C5a anaphylatoxin chemotactic receptor 1 (Homo sapiens)
assay-text: Displacement of [125I]human anaphylatoxin C5a from human C5a receptor expressed in CHO cells co-expressed with Galpha16 after 1 hr
Type: cell-based
pIC50: −log10 of the molar value.
Recorded pIC50 by entry

| smi | assayed-target | pIC50 |
| --- | --- | --- |
| Cc1ccc(S(=O)(=O)N2Cc3ccccc3CN(S(=O)(=O)c3ccc(C)cc3)c3ccccc32)cc1 | C5a anaphylatoxin chemotactic receptor 1 (Homo sapiens) | < 4.22 |

Please give the measured pIC50 for this molecule: CC(=O)c1ccccc1N(C)S(=O)(=O)c1ccc(C)cc1
< 4.22

Field request: pIC50 | item: CN(c1ccccc1N(C)S(=O)(=O)c1ccccc1)S(=O)(=O)c1ccccc1
< 4.22

Fill in the blank: the reported pIC50 of Cc1ccc(S(=O)(=O)N2CCN(S(=O)(=O)c3ccc(C)cc3)c3ccccc32)cc1 is ____.
< 4.22

---

Overview of reported IC50 across a group of compounds:
assayed-target: C5a anaphylatoxin chemotactic receptor 1 (Homo sapiens)
assay-text: Antagonist activity at human C5a receptor expressed in CHO cells co-expressed with Galpha16 assessed as inhibition of anaphylatoxin C5a-induced intracellular calcium accumulation after 10 mins by FLIPR assay
Assay type: functional, cell-based

Below: 2 compounds and their reported IC50.
| smi | IC50 |
| --- | --- |
| Cc1ccc(S(=O)(=O)N2CCN(S(=O)(=O)c3ccc(C)cc3)c3ccccc32)cc1 | > 60 µM |
| Cc1ccc(S(=O)(=O)N(C)c2ccc(Br)cc2C(=O)c2ccccc2)cc1 | > 60 µM |

Next, consider the following compound.
Value lookup for IC50; key = Cc1ccc(S(=O)(=O)N2CCN(S(=O)(=O)c3ccc(C)cc3)CC2)cc1
> 60 µM
